Measured TGI of individual entries
- System: OVCAR-3 ovarian
- assayName: NCI tumour cell line growth inhibition, 48 h

## Input Requested read-out: TGI. Entry: Cc1cc(C)c2c(=O)n(CC(O)CN3CCN(c4ncccn4)CC3)sc2n1 (stereo not given)
## Output 34.5 µM

## Input And CC12CCC3=C(CSC4=C3CSc3ccccc34)C1=CCCC2=O (stereo not given) ?
## Output > 100 µM

## Input And O=C(O)C(C1NCCS1)N1Cc2ccccc2C1 (stereo not given) ?
## Output > 100 µM

## Input And CC1=NN(C(=O)CC(=O)Nc2ccccc2)C(=O)C1N=Nc1ccc(S(N)(=O)=O)cc1 (stereo not given) ?
## Output > 100 µM

## Input And Clc1ccc2nc3c(c(-c4ccccc4)nn3-c3ccccc3)c(-c3ccccc3)c2c1 ?
## Output > 100 µM

* * *

- Test system: HCT-116 colon
- assayName: NCI tumour cell line growth inhibition, 48 h; in the data active = GI50 below about 0.43 µM; inactive = the rest
Log the outcome using a class from active, inactive

1. N=C(N)c1ccc(-c2ccc(-c3ccco3)o2)cc1; inactive
2. CCSc1sc(-c2ccc(C)cc2)nc1[P+](c1ccccc1)(c1ccccc1)c1ccccc1; active
3. Nc1ncnc2c1ncn2C1OC(CO)C(O)C1O (stereo unspecified); inactive
4. C=C1c2c(C)nn(-c3ccccc3)c2N(C)C23C[C@@H]1C1(C)c4c(C)nn(-c5ccccc5)c4N(C)C(C)(C[C@H]12)C3 (stereo partly specified); inactive
5. COC(=O)C1=C(O)C(C(=O)OC)[C@@]2(O)[C@@H](C(=O)OC)C(c3ccccc3C(F)(F)F)C[C@@H]1[C@@H]2C(=O)OC (stereo partly specified); inactive

For the next question, use this molecule.
## Input Please indicate how the test categorized CC([C@H]1CCC2C3CCC4C(=O)C(NC=O)=CC[C@]4(C)C3CC[C@@]21C)N(C)C (stereo partly specified) .
## Output inactive

* * *

- Test system: RPMI-8226 leukemia
- assayName: NCI tumour cell line growth inhibition, 48 h; in the data active = GI50 below about 0.43 µM; inactive = the rest
Log the outcome using a class from YES for active, NO for inactive

Worked set:
1. COc1cccc(-n2cnc3c(N/N=C/c4ccncc4)ncnc32)c1; NO
2. N#CC1=C(N)NC(=S)NC1c1ccc(-c2ccc(-c3nc4ccccc4s3)cc2)o1 (stereo not given); NO
3. C=CC[n+]1c(/C=C2\Sc3ccccc3N2C)sc(-c2ccccc2)c1-c1ccccc1; YES
4. COc1cc2c(cc1OC)[C@@H]1[C@H](C2=O)c2ccc([N+](=O)[O-])cc2C(=O)N1CCCBr; YES
5. COc1cc(OC)cc(-c2n[nH]nc2-c2ccc3c(c2)OCO3)c1; YES
6. COC(=O)C1=C(O)C(C(=O)OC)[C@@]2(O)[C@@H](C(=O)OC)C(c3ccccc3C(F)(F)F)C[C@@H]1[C@@H]2C(=O)OC (stereo not given in full); NO
7. N=C(N)c1ccc(-c2ccc(-c3ccco3)o2)cc1; NO
8. N.N.NCCCCN.O=C([O-])CCl.O=C([O-])CCl.O=C([O-])CCl.O=C([O-])CCl.[Pt+4].[Pt+4]; NO

## Input Please indicate how the test categorized Oc1ccc(Br)cc1CN1CCN(Cc2ccc(Cl)cc2)CC1 .
## Output NO

## Input And COc1ccc(/C(C#N)=C/c2nc3c(N4CCOCC4)nc(Cl)nc3n2C)cc1OC ?
## Output YES

## Input And N#CC1=C(N)Oc2c(sc3c(F)cccc23)C1c1ccc(Cl)cc1 (stereo not given) ?
## Output NO

## Input And NS(=O)(=O)OC[C@H]1O[C@@H](n2cnc3c(N[C@H]4CCc5ccccc54)ncnc32)[C@H](O)[C@@H]1O ?
## Output NO

* * *

Measured TGI of individual entries
- Test system: HCT-116 colon
- assayName: NCI tumour cell line growth inhibition, 48 h
Supply the numeric figure in µM, leaving out any unit text.

1) CC([C@H]1CCC2C3CCC4C(=O)C(NC=O)=CC[C@]4(C)C3CC[C@@]21C)N(C)C (some centres undefined); 3.95

## Input Requested read-out: TGI. Entry: CSc1nc(NC2CC2)c2c(n1)Sc1nc3ccccc3n1N=C2
## Output 27.4

## Input And CCOC(=O)C(=C=Cc1cccs1)C(=O)c1ccccc1 ?
## Output 27.7

## Input And CC(=O)c1c[nH]c2ccc(-c3ccnc(Nc4ccc(NC(=O)c5cccc(F)c5)c(CN5CCOCC5)c4)n3)cc12 ?
## Output 14.7

## Input And CCCCC#Cc1c(I)n(C2OC(CO[Si](C)(C)C(C)(C)C)C3OC(C)(C)OC32)c(=O)[nH]c1=O (centres undefined) ?
## Output 17.9

* * *

Measured TGI of individual entries
- Tested on: UACC-62 melanoma
- assayName: NCI tumour cell line growth inhibition, 48 h
Supply the numeric figure in µM, leaving out any unit text.

Consider the reported TGI for these compounds:
1) COc1ccc(OC)c(-c2cc(-c3ccc(Cl)cc3)nn2-c2ccc(S(N)(=O)=O)cc2)c1; 12.1
2) Cc1cc(C)c2nc(Nc3nc(C)c(C)c(=O)[nH]3)nc(C)c2c1; 5.5

Please turn your attention to the following entry.
## Input Requested read-out: TGI. Entry: CC1CN=C(c2ccc3c(c2)Cc2cc(C4=NCC(C)N4)ccc2-3)N1 (stereo not given)
## Output 99

* * *

- Test system: IGROV1 ovarian
- assayName: NCI tumour cell line growth inhibition, 48 h
resultType: GI50

1. C=CC[n+]1c(/C=C2\Sc3ccccc3N2C)sc(-c2ccccc2)c1-c1ccccc1; 0.45 µM
2. COC(=O)C1=C(O)C(C(=O)OC)[C@@]2(O)[C@@H](C(=O)OC)C(c3ccc(OC(=O)C(Cc4ccccc4)NC(C)=O)cc3)C[C@@H]1[C@@H]2C(=O)OC (stereo not given in full); 45.7 µM
3. CC(C)=CCNc1ncnc2c1ncn2C1OC(COP(=O)(O)O)C(O)C1O (stereo not given); 11 µM
4. COc1cccc(-n2cnc3c(N/N=C/c4ccncc4)ncnc32)c1; 8.65 µM

## Input Requested read-out: GI50. Entry: COc1cc(C2CC(c3ccc(C)cc3)=NN2C(C)=O)ccc1Oc1ccnc2cc(Cl)ccc12 (stereo not given)
## Output 38.2 µM

* * *

Measured TGI of individual entries
- Test system: HOP-62 NSCLC
- assayName: NCI tumour cell line growth inhibition, 48 h
Supply the numeric figure in µM, leaving out any unit text.

Consider the reported TGI for these compounds:
1. C=CCn1c(-c2ccc(N=NNc3ccc(-c4n[nH]c(=S)n4CC=C)cc3)cc2)n[nH]c1=S; 14.8
2. COc1ccc(-n2cc(-c3ccc(Cl)cc3)[nH]c2=S)cc1Cl; 92.2

## Input Requested read-out: TGI. Entry: CN1CCN(c2nc(NCCNc3ccnc4cc(Cl)ccc34)c3ccccc3n2)CC1
## Output 14.2

## Input And O=C(NCCc1ccccc1)C(c1csc2ccccc12)N(C(=O)CCl)c1ccc(-c2cnco2)cc1 (centres undefined) ?
## Output 1.07

* * *

- Test system: ACHN renal
- assayName: NCI tumour cell line growth inhibition, 48 h
Measured TGI of individual entries

1) COc1ccc(/C=N\N2C(=O)Cc3ccccc32)cc1; > 100 µM

## Input Requested read-out: TGI. Entry: COc1cc(C=C2C(=O)OC(C)(C)OC2=O)cc(OC)c1OC
## Output > 100 µM

## Input And CCSc1sc(-c2ccc(C)cc2)nc1[P+](c1ccccc1)(c1ccccc1)c1ccccc1 ?
## Output 1.01 µM

## Input And COC(=O)C(=O)C(C(=O)C(=O)Nc1ccc(Cl)cc1Cl)c1nc2ccc(Cl)cc2[nH]c1=O (stereo not drawn) ?
## Output > 100 µM

## Input And COc1cc(C2C3=C(COC3=O)N(CCO)c3cc4c(cc32)OCCO4)cc(OC)c1O (stereo not drawn) ?
## Output > 50 µM

## Input And N.N.NCCCCN.O=C([O-])CCl.O=C([O-])CCl.O=C([O-])CCl.O=C([O-])CCl.[Pt+4].[Pt+4] ?
## Output > 50 µM

## Input And COC(=O)c1nc(N)[nH]c(=O)c1-c1ccc(Cl)cc1 ?
## Output > 100 µM

## Input And O=C(N/C(=C\c1cc(Cl)ccc1Cl)c1nc2ccccc2[nH]1)c1ccccc1 ?
## Output > 100 µM

## Input And Nc1c2c(nc3ccccc13)-c1ccccc1CCC2 ?
## Output 26.5 µM

## Input And CC(C)OCC(O)COc1cc(=O)oc2ccccc12 (stereo not drawn) ?
## Output > 100 µM

## Input And COc1cc(Oc2cnc3cc(N)cc(N)c3n2)cc(OC)c1OC ?
## Output 63.4 µM

* * *

- Tested on: U251 CNS
- assayName: NCI tumour cell line growth inhibition, 48 h
Consider the following partition of reported TGI into named classes: lower segment (below 20 µM), middle segment (20 µM to below 30 µM), upper segment (30 µM or more)

1) N=C(N)c1ccc(-c2ccc(-c3ccco3)o2)cc1; lower segment
2) COc1cc(OC)cc(-c2n[nH]nc2-c2ccc3c(c2)OCO3)c1; lower segment
3) Brc1ccc2c(c1)[C@H]1CCc3c([nH]c4ccccc34)[C@H]1N2; middle segment
4) C=CCCCN1C(=O)C2C3c4ccccc4C(C=O)(c4ccccc43)C2C1=O (centres undefined); middle segment
5) O=C(O)C(=O)/C=C\c1ccc(Cl)cc1; upper segment

## Input Sort COC(=O)C1=C(O)C(C(=O)OC)[C@@]2(O)[C@@H](C(=O)OC)C(c3ccc(OC(=O)C(Cc4ccccc4)NC(C)=O)cc3)C[C@@H]1[C@@H]2C(=O)OC (some centres undefined) into one of the categories.
## Output upper segment
